target.desc: T1, cynomolgus monkey IL-2Rβ/CD122 subunit (cynomolgus monkey, UniProt Q38J85 27-239, limits assumed)
T1 construct: also called Cyno IL-2R subunit
T1 sequence (looked up): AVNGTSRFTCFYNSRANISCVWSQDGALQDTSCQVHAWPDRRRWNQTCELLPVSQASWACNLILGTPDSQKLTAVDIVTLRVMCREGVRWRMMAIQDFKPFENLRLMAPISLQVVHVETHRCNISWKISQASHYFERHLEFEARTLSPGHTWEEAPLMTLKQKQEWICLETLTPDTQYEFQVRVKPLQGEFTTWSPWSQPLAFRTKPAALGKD
protocol.details: ELISA, bivalent VHH-hFc
pEC50: −log10 of the molar value.
metric: pEC50

{"columns": ["binder", "metric", "endpoint.result"],
 "data": [
  ["18-MP03C03 VHH-hFc, monospecific bivalent (Fc fusion, IgG1 Fc LALA-PG; not shown: human IgG1 CH2 and CH3 domains (Fc)) QVQLVESGGGLVQPGGSLRLSCAISGGTLDSYGIGWVRQAPGKQREGVSCMSRSDDRTYYADSVKGRFTISKDSAKNTVYLQMTSLKPEDTAVYYCAAVDAYGCSLVQPTTYDFWGLGTQVTVSS", "pEC50", 9.52],
  ["17-MP02C09 VHH-hFc, monospecific bivalent (Fc fusion, IgG1 Fc LALA-PG; also called anti-IL-2Rβ Ab 17; not shown: human IgG1 CH2 and CH3 domains (Fc)) QVQLQESGGGLVQAGGSLRLSCVASGSVSSINGMAWYRQGADNQRVLVAAISRVGNTAYGDSVKGRFTISRQNARNTVYLQMNSLKPEDTAVYYCNADSWGGDDYWGQGTQVTVSS", "pEC50", 9.74],
  ["19-MP03F08 VHH-hFc, monospecific bivalent (Fc fusion, IgG1 Fc LALA-PG; not shown: human IgG1 CH2 and CH3 domains (Fc)) EVQLVESGGGLVQTGGSLRLSCAASGGTFSRDAMAWFRQVPGKEREFVALISWSGATTNYADSVKGRFAISRDNGKNTVYLQMNRLKPADTAIYYCAADRRPMGSRSYFEPTEYDDWGQGTQVTVSS", "pEC50", 9.22],
  ["189-MP02B12 VHH-hFc, monospecific bivalent (Fc fusion, IgG1 Fc LALA-PG; not shown: human IgG1 CH2 and CH3 domains (Fc)) QVQLVESGGGLVQAGGSLRLSCAASGRADSNAIMAWFRQAPGKEREFIVAVTYSGMPTYQDDSVQGRFTASRDNAKNTVYLQMNSLKPEDTAVYYCAARMYSASTYYGDYDYWGQGTQVTVSS", "pEC50", 10.18]
]}
